- Test system: rodent lifetime carcinogenesis bioassay, tumor incidence TD50
- measurement.description: carcinogenic potency in animals, long-term in vivo studies, CPDB compilation (AID 1745844)
- condition: rat; strain Charles River CD1; males; in feed; site: urinary bladder; lesion: transitional-cell papilloma; dosed 104 weeks; study length 104 weeks

smiles.record: CCOP(=O)=O.CCOP(=O)=O.CCOP(=O)=O.[Al+3]
TD50, mg/kg/day: 17200

====

- Tested on: rodent lifetime carcinogenesis bioassay, tumor incidence TD50
- measurement.description: carcinogenic potency in animals, long-term in vivo studies, CPDB compilation (AID 1745844)
- condition: mouse; strain B6C3F1; females; by gavage; site: adrenal capsule; lesion: adenoma, NOS; dosed 103 weeks; study length 104 weeks
endpoint.label: TD50 (mg/kg/day)

compound: C=CC1CC=CCC1 (stereo unspecified)
endpoint.label: TD50
quantitative.readout: 1050

====

- Test system: rodent lifetime carcinogenesis bioassay, tumor incidence TD50
- measurement.description: carcinogenic potency in animals, long-term in vivo studies, CPDB compilation (AID 1745844)
- condition: mouse; strain B6C3F1; females; by gavage; site: liver; lesion: hepatocellular adenoma; dosed 104 weeks; study length 106 weeks

smiles.record: ClC=CCCl
TD50 / mg/kg/day: 215

====

- Tested on: rodent lifetime carcinogenesis bioassay, tumor incidence TD50
- measurement.description: carcinogenic potency in animals, long-term in vivo studies, CPDB compilation (AID 1745844)
- condition: rat; strain ACI; males; by gavage; site: kidney; lesion: tubular-cell adenocarcinoma; dosed 103 weeks; study length 104 weeks
endpoint.label: TD50 (mg/kg/day)

smiles.record: ClC=C(Cl)Cl
target.system: rodent lifetime carcinogenesis bioassay, tumor incidence TD50
endpoint.label: TD50
measurement.unit: mg/kg/day
quantitative.readout: 12000

====

- Test system: rodent lifetime carcinogenesis bioassay, tumor incidence TD50
- measurement.description: carcinogenic potency in animals, long-term in vivo studies, CPDB compilation (AID 1745844)
- condition: rat; strain Fischer 344; females; by gavage; site: oral mucosa + palate; lesion: squamous-cell papilloma; dosed 100 weeks; study length 104 weeks
endpoint.label: TD50

smiles.record: CC(C)=CCl
result: 1010 mg/kg/day

====

- Test system: rodent lifetime carcinogenesis bioassay, tumor incidence TD50
- measurement.description: carcinogenic potency in animals, long-term in vivo studies, CPDB compilation (AID 1745844)
- condition: rat; strain Fischer 344/Jcl; females; by gavage; site: mammary gland; lesion: several types; types named in the paper; dosed 55 weeks; study length 104 weeks

smiles.record: O=[N+]([O-])c1ccc2ccc3cccc4ccc1c2c34
TD50: 3.33 mg/kg/day

====

- System: rodent lifetime carcinogenesis bioassay, tumor incidence TD50
- measurement.description: carcinogenic potency in animals, long-term in vivo studies, CPDB compilation (AID 1745844)
- condition: rat; strain Sprague-Dawley; females; inhaled; site: Zymbal's gland; lesion: squamous-cell carcinoma; dosed 81 weeks; study length 103 weeks
endpoint.label: TD50

smiles.record: C=CBr
endpoint.label: TD50
result: 2240 mg/kg/day

====

- System: rodent lifetime carcinogenesis bioassay, tumor incidence TD50
- measurement.description: carcinogenic potency in animals, long-term in vivo studies, CPDB compilation (AID 1745844)
- condition: mouse; strain Swiss; females; inhaled; site: any site (literature study); lesion: malignant tumor; dosed 78 weeks; study length 145 weeks

smiles.record: ClC=C(Cl)Cl
measurement.unit: mg/kg/day
TD50: 9840
